Experiment: chemical genetic growth profiling, strain panel (AID 1159580);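 further: tested at 20 µM; growth read once vehicle control cultures reached saturation at 30 °C; lower values mean less growth of the strain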
Settings: S. cerevisiae deletion strains, growth OD, locus YDL134C, strain PPH21
The whole screen tested about 5,500 compounds, of which about 2,000 (36%) were called active. Inconclusive results (about 18%) are left out. No stated cut-off is given here; in the data, active means normalized growth mostly below about 0.91 (no sharp cut-off); inconclusive means no clear call, values can overlap the other calls; inactive means mostly above about 0.92. The list shows a part of the results.
Outcome codes: active, inactive

# compound, classification
records = [
    ("COc1ccc(NC(=O)C(C)c2ccc(CC(C)C)cc2)cc1 (stereo unspecified)", "inactive"),
    ("CC(C)CC(N(C)C)C1(c2ccc(Cl)cc2)CCC1 (stereo unspecified)", "inactive"),
    ("CCC(C)C(NC)C(=O)O (stereo unspecified)", "inactive"),
    ("CC(=O)OC1CC[C@@]2(C)C(CC[C@]3(C)C2CCC2C4CC(C)(C)CCC4(C(=O)O)CC[C@]23C)C1(C)C (stereo partly specified)", "inactive"),
    ("Cc1cc(=O)[nH]c(-c2ccccn2)n1", "inactive"),
    ("COC(=O)c1cccc(NC(=O)CC2C(=O)NCCN2C(=O)c2cccs2)c1 (stereo unspecified)", "inactive"),
    ("CCC(C)C(=O)O[C@H]1[C@H](O)C2C(CN3CC(C)CCC3[C@@]2(C)O)C2C[C@]34O[C@]5(O)C(OC(=O)C(C)(O)CC)CC[C@@]3(C)C5C(OC(C)=O)[C@@H](OC(C)=O)C4[C@@]21O (stereo partly specified)", "inactive"),
    ("OC(CCN1CCCC1)(c1ccccc1)C1CCCCC1 (stereo unspecified)", "inactive"),
    ("C#C[C@]1(O)CCC2C3CCC4=CC(=O)CC[C@@H]4C3CC[C@@]21C (stereo partly specified)", "inactive"),
    ("CCOP(=S)(OCC)Oc1cc(C)nc(C(C)C)n1", "inactive"),
    ("Cc1cc(O)cc(O)c1C(=O)O", "inactive"),
    ("Cc1nn(C)c(C)c1NS(=O)(=O)c1cc(Cl)sc1Cl", "inactive"),
    ("C=C/C(C)=C\\CC1C(C)(O)CCC2C(C)(C)CCCC21C (stereo unspecified)", "active"),
    ("COc1ccc(-c2n[nH]c(=S)n2-c2cccc(OC)c2)cc1", "inactive"),
    ("CCc1cc2c(cc1C(=O)CC1(O)C(=O)Nc3ccc(Br)cc31)C(C)(C)CCC2(C)C (stereo unspecified)", "inactive"),
    ("Cc1cc(OCOc2ccc(Cl)c(C)c2)ccc1Cl", "inactive"),
    ("COC(=O)C[C@H]1C(C)(C)C2(O)OC34CC2C(=O)[C@]1(C)C3CC[C@]1(C)C4=CC(=O)O[C@H]1c1ccoc1 (stereo partly specified)", "inactive"),
    ("OC(CCN1CCCCC1)(c1ccccc1)C1CCCCC1 (stereo unspecified)", "inactive"),
    ("O=C1ON=C(c2ccccc2)/C1=C/c1ccc(Cl)cc1", "active"),
    ("Cc1cc(O)cc(=O)o1", "inactive"),
    ("CCCc1nc(-c2ccccn2)[nH]c(=O)c1CC1CC1", "active"),
    ("CCOC(=O)c1ccc2[nH]c(-c3ccccc3)cc(=O)c2c1", "inactive"),
    ("O=C(NC1Cc2ccccc2C1)c1cncc(Br)c1", "inactive"),
    ("Cc1noc(N)c1C(N)=S", "inactive"),
    ("N#CC(C#N)=CNc1cccc(N)n1", "inactive"),
    ("NC(Cc1c[nH]c2ccccc12)C(=O)O (stereo unspecified)", "inactive"),
    ("FC(F)(F)c1cccc(CSc2n[nH]c(=S)s2)c1", "active"),
    ("O=S(=O)(CCN1CCOCC1)c1ccc(Cl)cc1", "inactive"),
    ("CC(C)(Oc1ccc(CCNC(=O)c2ccc(Cl)cc2)cc1)C(=O)O", "inactive"),
    ("Cc1cc(C(C)(C)C)c(O)c(C(C)(C)C)c1", "inactive"),
    ("CC1(C)CC[C@]2(C(=O)O)CC[C@]3(C)C(=CCC4[C@@]5(C)CC[C@@H](O)C(C)(C)C5CC[C@]43C)C2C1 (stereo partly specified)", "inactive"),
    ("CCOC(=O)c1sc(-c2ccc(C)cc2)nc1O", "active"),
    ("COc1ccc(Oc2cc(C)nc3ccccc23)cc1", "inactive"),
    ("Cc1cc(O)c2c(c1)Cc1cccc(O)c1C2=O", "inactive"),
    ("Cc1cc(C2=CSC3=NCCN23)ccc1Cl", "inactive"),
    ("Cc1cc(C)cc(NC(=S)N2CCN(c3ncc(C(F)(F)F)cc3Cl)CC2)c1", "inactive"),
    ("Nc1ccccc1C(=O)N/N=C\\c1cccc2ccccc12", "active"),
    ("O=C1c2c(O)cccc2Cc2cccc(O)c21", "inactive"),
    ("C[C@H]1[C@H](C)CC[C@]2(CO)CC[C@]3(C)C(=CCC4[C@@]5(C)CC[C@H](O)C(C)(C)C5CC[C@]43C)[C@H]12 (stereo partly specified)", "inactive"),
    ("C[C@@H]1CC[C@]2(C(=O)O)CC[C@]3(C)C(=CCC4[C@@]5(C)CC[C@H](O)C(C)(C)C5CC[C@]43C)C2[C@H]1C (stereo partly specified)", "inactive"),
    ("Nc1ccccc1C(=O)CC(N)C(=O)O (stereo unspecified)", "inactive"),
    ("COc1cccc(OC)c1OCCNCC1COc2ccccc2O1 (stereo unspecified)", "inactive"),
    ("CCCOc1ccccc1-c1nc2n[nH]nc2c(=O)[nH]1", "inactive"),
    ("Nc1c2ccccc2nc2ccccc12 (tested in a mixture with another compound)", "active"),
    ("O=[N+]([O-])c1ccccc1SCc1n[nH]c(=S)n1-c1cccc(C(F)(F)F)c1", "inactive"),
    ("C/C=C1\\[C@H]2C=C(C)C[C@]1(N)c1ccc(=O)[nH]c1C2", "inactive"),
]
